Tested system: Cytochrome P450 2D6 (Homo sapiens)
Test description: Cytochrome panel assay with activity outcomes
Particulars: recombinant CYP, pro-luciferin dealkylation, luminescence, p450-cyp2d6; series mostly up to 57.1 µM
Description: The P450 gene superfamily is involved in the metabolism and clearance of xenobiotics. This assay used various human CYP P450 isozymes to measure the dealkylation of various pro-luciferin substrates to luciferin. The luciferin is then measured by luminescence after the addition of a luciferase detection reagent. […] Inhibitors and some substrates limit the production of luciferin, and decrease measured luminescence. […] 8, Detection, 1 sec, ViewLux luminescent read […]
Hit rate of the full screen: of about 16,000 compounds, about 2,600 (16%) were called active. Another 20% or so got no clear call; they are omitted. The call rests on the fitted dose curve; in most records, active means well fitted curve in the direction sought with a large enough effect; inconclusive means small, poorly fitted or top-dose-only effect, or effect the other way; inactive means no such curve, though single readings can be large or run the other way. Not all results are given here.
Return exactly one item of active, inactive

Consider the worked cases shown below.
1. CCOC(=O)c1nc(N)sc1C(=O)OCC; inactive
2. CS(=O)(=O)N1CCC2(CCN(C(=O)Nc3cccc(F)c3)CC2)CC1; inactive
3. Cc1c(-c2ccc(F)cc2)nc(N)c(C#N)c1-c1cccs1; inactive

Task item: // outcome(item) with item = `O=C(N/N=C1\CCCc2ccccc21)c1ccc([N+](=O)[O-])cc1Cl`
Reply: inactive

Task item: // outcome(item) with item = `O=C(Nc1ccc(Cl)cc1)OCc1cc(-c2ccccc2Cl)on1`
Reply: inactive

Task item: // outcome(item) with item = `Cn1c(CN2CCOCC2)nnc1SCc1ccccc1`
Reply: inactive

Task item: // outcome(item) with item = `N/C(=N\OC(=O)c1cc(-c2ccccc2)nc2ccccc12)c1ccc(Cl)cc1`
Reply: inactive

Task item: // outcome(item) with item = `S=C1SCN(CCN2CCOCC2)CN1Cc1ccccc1`
Reply: active

Task item: // outcome(item) with item = Fc1ccc(C2CC(c3ccco3)=NN2c2ccccc2)cc1 (configuration not stated)
Reply: active

Task item: // outcome(item) with item = COc1ccc(N2CC(C(=O)OCC(=O)c3cccc(OC)c3)CC2=O)cc1 (configuration not stated)
Reply: inactive

Task item: // outcome(item) with item = `COC(=O)N1CCC2(CCCN(C(=O)Nc3cccc(F)c3)C2)CC1`
Reply: inactive

Task item: // outcome(item) with item = `CCCC(=O)Nc1cc(-c2cn3cccnc3n2)ccc1OC`
Reply: inactive

Task item: // outcome(item) with item = `O=C(O)C=Cc1ccc(Cn2ccnc2)cc1`
Reply: active

Task item: // outcome(item) with item = CCOC(=O)c1sc2nc3c(cc2c1N)COC(C)(CC)C3 (configuration not stated)
Reply: inactive

Task item: // outcome(item) with item = `C[C@H](N)C(=O)OC(C)(C)Cc1ccc(Cl)cc1`
Reply: active

====

Tested system: Cytochrome P450 2D6 (Homo sapiens) (UniProt P10635)
Sequence (P10635 whole entry, looked up): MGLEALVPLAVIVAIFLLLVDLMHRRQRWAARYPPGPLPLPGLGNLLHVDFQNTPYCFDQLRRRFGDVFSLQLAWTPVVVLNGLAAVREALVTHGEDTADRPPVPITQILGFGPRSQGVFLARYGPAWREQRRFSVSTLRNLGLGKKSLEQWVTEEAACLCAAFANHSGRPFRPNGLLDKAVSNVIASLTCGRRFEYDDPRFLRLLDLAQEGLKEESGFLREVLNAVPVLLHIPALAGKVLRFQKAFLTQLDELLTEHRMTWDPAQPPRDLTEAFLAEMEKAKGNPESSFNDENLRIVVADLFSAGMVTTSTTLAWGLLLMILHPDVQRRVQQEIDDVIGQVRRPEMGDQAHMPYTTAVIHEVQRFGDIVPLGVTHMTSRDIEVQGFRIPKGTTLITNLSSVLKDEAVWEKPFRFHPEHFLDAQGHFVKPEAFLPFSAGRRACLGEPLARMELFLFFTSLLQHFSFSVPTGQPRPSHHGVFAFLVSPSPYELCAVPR
Test description: Cytochrome panel assay with activity outcomes
Particulars: recombinant CYP, pro-luciferin dealkylation, luminescence, p450-cyp2d6; series mostly up to 57.1 µM
In all, about 16,000 compounds went through this assay and about 2,600 (16%) were called active. Not shown: some 20% with an inconclusive outcome. The call rests on the fitted dose curve; in most records, active means well fitted curve in the direction sought with a large enough effect; inconclusive means small, poorly fitted or top-dose-only effect, or effect the other way; inactive means no such curve, though single readings can be large or run the other way. Not all results are given here.
Return exactly one item of yes (1) for active, no (0) for inactive

Consider the worked cases shown below.
1. O=C1/C(=C/c2ccccc2)[C@@H](NC2CCCCC2)c2ccccc21; yes (1)
2. O=C1CCCC2=C1C(c1ccc(Cl)cc1)C1C(=O)c3ccccc3C1=N2 (stereo not drawn); yes (1)
3. CCOC(=O)C1=C(C)N=C2c3ccccc3C(=O)C2C1c1ccc(C)cc1 (stereo not drawn); no (0)
4. CC1CCCN(C(=O)c2sc3cc([N+](=O)[O-])ccc3c2Cl)C1 (stereo not drawn); yes (1)
5. NCCCCCc1nnc(SCc2ccccc2Cl)o1; yes (1)
6. COc1cccc(Cn2c(=O)c(-c3cccc(C#N)c3)nc3cnc(OC)nc32)c1; no (0)
7. CCOc1ccc(/C=C2\C(=O)c3ccccc3OC2c2ccccc2)cc1 (stereo not drawn); no (0)
8. Cc1cc(NC(=O)c2nn(C)c(C)c2[N+](=O)[O-])no1; no (0)
9. O=C1C2C3C=CC(CC3)C2C(=O)N1/N=C/c1ccccc1O (stereo not drawn); no (0)
10. CCOC(=O)C1=C(C)N=C2c3ccccc3C(=O)C2C1c1ccc(Cl)cc1 (stereo not drawn); yes (1)

Now examine the next entry.
Task item: // outcome(item) with item = `Clc1ccc(CSc2nnc(-c3cccnc3)o2)cc1`
Reply: yes (1)

====

Tested system: Cytochrome P450 2D6 (Homo sapiens) (UniProt P10635)
Test description: Cytochrome panel assay with activity outcomes
Particulars: recombinant CYP, pro-luciferin dealkylation, luminescence, p450-cyp2d6; series mostly up to 57.1 µM
Hit rate of the full screen: of about 16,000 compounds, about 2,600 (16%) were called active. About 20% were inconclusive and are not listed. Calls come from the whole dose curve; as a rule, active = well fitted curve in the direction sought with a large enough effect; inconclusive = small, poorly fitted or top-dose-only effect, or effect the other way; inactive = no such curve, though single readings can be large or run the other way. Not all results are given here.
Return exactly one item of active, inactive

Consider the worked cases shown below.
1. CC12CCC(C(=O)Nc3ncc([N+](=O)[O-])s3)(OC1=O)C2(C)C (stereo unspecified); inactive
2. Cc1ccc(NC(=O)NNC(=O)Cn2nc(-c3ccccc3)c(-c3ccccc3)c(C#N)c2=O)cc1; inactive
3. CN1CCCN([C@@H](c2ccccc2)c2ccc(Cl)cc2)CC1; active

Task item: // outcome(item) with item = `CN(Cc1cc2ccccc2[nH]c1=O)S(C)(=O)=O`
Reply: inactive

Task item: // outcome(item) with item = `Cc1cc(C)cc(-n2nnnc2-c2cn(C)nc2C(F)(F)F)c1`
Reply: inactive

Task item: // outcome(item) with item = `Cc1cccc(Oc2coc3cc(OC(=O)c4cccs4)ccc3c2=O)c1`
Reply: inactive

Task item: // outcome(item) with item = `CC(C)=NO[C@@H](C)CN1CCCCc2nc(C)c(C)cc21`
Reply: active

Task item: // outcome(item) with item = `Cn1cccc1C(=O)N1CCC2(CCCN(c3cccc(-c4ccccc4)c3)C2)CC1`
Reply: inactive

Task item: // outcome(item) with item = `COc1ccccc1NC(=S)NCCc1ccccc1`
Reply: active

Task item: // outcome(item) with item = `Fc1ccccc1NC(=S)NCCc1ccccc1`
Reply: active

Task item: // outcome(item) with item = `N#C/C(=C(/O)CN1CCCCC1)c1nc(-c2ccc(Cl)cc2)cs1`
Reply: inactive

Task item: // outcome(item) with item = `CN1CCN([C@@H](c2ccccc2)c2ccc(Cl)cc2)CC1`
Reply: active

====

Tested system: Cytochrome P450 2D6 (Homo sapiens)
Test description: Cytochrome panel assay with activity outcomes
Particulars: recombinant CYP, pro-luciferin dealkylation, luminescence, p450-cyp2d6; series mostly up to 57.1 µM
Screen size: about 16,000 compounds; about 2,600 (16%) were called active. Another 20% or so got no clear call; they are omitted. Calls come from the whole dose curve; as a rule, active = well fitted curve in the direction sought with a large enough effect; inconclusive = small, poorly fitted or top-dose-only effect, or effect the other way; inactive = no such curve, though single readings can be large or run the other way. The list is a sample of the results.
Return exactly one item of active, inactive

Consider the worked cases shown below.
1. O=C1c2cccnc2C(=O)N1Cc1ccc(F)cc1; inactive
2. N=C1SCC(=O)N1c1nc(-c2ccccc2)cs1; inactive
3. CCCCN=c1sc(C(=O)OC)cc(=O)n1CCCC; inactive
4. O=C(c1cnccn1)N1CCC2(CCCN(C(c3ccccc3)c3ccccc3)C2)CC1; active
5. O=C(Nc1ccccc1)N1CCCC2(CCN(C(=O)c3cnccn3)CC2)C1; inactive
6. O=C1C(=O)N(Cc2ccc(Cl)c(Cl)c2)c2ccccc21; active
7. Cc1ccc(OCC(=O)NNC(=O)c2cc3ccccc3o2)cc1C; inactive
8. COc1ncc2nc(CCc3ccccc3)c(=O)n(CCc3ccccc3)c2n1; inactive

Task item: // outcome(item) with item = `COCC(=O)N1CCC[C@@]2(CCN(Cc3ccc(C#N)cc3)C2)C1`
Reply: inactive

Task item: // outcome(item) with item = `Cc1cccc(N(NC(=O)C(C)(C)O)C(=O)c2ccccc2)c1`
Reply: inactive

Task item: // outcome(item) with item = CCOc1ccc(N(C(C)C(=O)NC(C)CC)S(C)(=O)=O)cc1 (stereo unspecified)
Reply: inactive

====

Tested system: Cytochrome P450 2D6 (Homo sapiens)
Test description: Cytochrome panel assay with activity outcomes
Particulars: recombinant CYP, pro-luciferin dealkylation, luminescence, p450-cyp2d6; series mostly up to 57.1 µM
Description: The P450 gene superfamily is involved in the metabolism and clearance of xenobiotics. This assay used various human CYP P450 isozymes to measure the dealkylation of various pro-luciferin substrates to luciferin. The luciferin is then measured by luminescence after the addition of a luciferase detection reagent. […] Inhibitors and some substrates limit the production of luciferin, and decrease measured luminescence. […] 8, Detection, 1 sec, ViewLux luminescent read […]
Screen size: about 16,000 compounds; about 2,600 (16%) were called active. Not shown: some 20% with an inconclusive outcome. These entries were drawn from the full list.
Measure name: AC50

Here's what some known entries look like.
1) Cc1ccc2cc(C)c3nnc(SCC(=O)NCc4ccco4)n3c2c1; inactive
2) O=c1cnc2cnc(N3CCOCC3)nc2n1Cc1ccc(F)cc1; inactive
3) O=C(O)CN(CCN(CC(=O)O)CC(=O)O)CCN(CC(=O)O)CC(=O)O; inactive
4) Cc1c2cnccc2c(C)c2c1c1ccccc1n2CCOC(=O)c1ccccc1; 3160 nM (active)
5) CCc1cccc2c(C=C(C#N)C#N)cn(CC(=O)N3CCCCC3)c12; inactive

`CCN(CC)C(=O)COc1ccc(S(=O)(=O)N2CCOCC2)cc1` has a reported AC50 of inactive

CC1(C)CC(=O)C(CCC(=O)c2ccccc2)C(C)(C)N1 (centres undefined) has a reported AC50 of 891 nM (active)

`CC(=O)Nc1ccc(NC(=O)CSc2ncnn2-c2ccccc2)cc1` has a reported AC50 of inactive

COc1ccccc1NC(=O)C1=C(C)Nc2nc(-c3ccc(N(C)C)cc3)nn2C1c1ccncc1 (centres undefined) has a reported AC50 of inactive

`Cc1ccccc1Cn1nc(C)c(NC(=O)c2sc3ccccc3c2Cl)c1C` has a reported AC50 of inactive

Where do these numbers come from? They come from PubChem BioAssay AID1851.
